experimental.target: IRAK4 (Homo sapiens)
Sequence (Q9NWZ3 whole entry): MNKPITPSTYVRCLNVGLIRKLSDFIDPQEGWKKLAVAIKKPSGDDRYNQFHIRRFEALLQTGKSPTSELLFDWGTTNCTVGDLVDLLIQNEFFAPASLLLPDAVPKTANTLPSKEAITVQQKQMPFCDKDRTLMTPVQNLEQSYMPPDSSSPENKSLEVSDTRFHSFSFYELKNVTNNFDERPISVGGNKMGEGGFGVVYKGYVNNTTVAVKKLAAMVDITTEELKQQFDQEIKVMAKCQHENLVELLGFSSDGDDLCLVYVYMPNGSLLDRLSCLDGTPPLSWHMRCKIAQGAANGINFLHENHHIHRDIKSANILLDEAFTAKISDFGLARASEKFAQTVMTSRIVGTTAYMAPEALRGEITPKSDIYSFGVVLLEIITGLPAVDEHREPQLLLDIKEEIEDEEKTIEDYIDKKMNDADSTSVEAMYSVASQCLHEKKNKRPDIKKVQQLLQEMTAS
method.notes: Degradation of IRAK4 in THP1 cells, Western blot
Format: cell-based
Set-up: Degradation of IRAK4 in THP1 by compound; host or cells: THP-1
condition.info: THP-1 cells, 24 hours of incubation, IRAK4 protein by Western blot; read-out: DC50
Structures can show the parent of a compound that is named as a salt.
value.kind: DC50

Check out these entries, answers already filled in.
NC(=O)c1nn(-c2ccc(N3CCN(C(=O)C4CC5(CCN(c6ccc(N7CCC(=O)NC7=O)cc6)CC5)C4)CC3)cc2)cc1NC(=O)c1cccc(C(F)(F)F)n1 :: 0.1 to 1 µM
N#Cc1ccnc(C(=O)Nc2cn(-c3ccc(N4CCN(C5CCN(c6ccc(NC7CCC(=O)NC7=O)cc6F)CC5)CC4)cc3)nc2C(N)=O)c1 (centres unmarked) :: > 1 µM
NC(=O)c1nn(-c2ccc(N3CCN(CC4CCN(c5ccc(NC6CCC(=O)NC6=O)cc5F)C4)CC3)cc2)cc1NC(=O)c1cccc(C(F)(F)F)n1 (centres unmarked) [Compound A361, formate] :: 0.1 to 1 µM
NC(=O)c1nn(-c2ccc(N3CCN(CC4CCN(c5ccc6c(c5)CN(C5CCC(=O)NC5=O)C6=O)CC4)CC3)cc2)cc1NC(=O)c1cccc(C(F)(F)F)n1 (centres unmarked) :: < 0.1 µM
Cn1c(=O)n(C2CCC(=O)NC2=O)c2cccc(N3CCC(C(=O)N4CCN(Cc5ccc(-n6cc(NC(=O)c7cccc(-c8ccn[nH]8)n7)c(S(N)(=O)=O)n6)cc5)CC4)CC3)c21 (centres unmarked) :: < 0.1 µM
Cn1c(=O)n(C2CCC(=O)NC2=O)c2cccc(NCCN3CCC4(CCN(C(=O)c5ccc(-n6cc(NC(=O)c7cccc(-c8ccn[nH]8)n7)c(S(N)(=O)=O)n6)cc5)C4)C3)c21 (centres unmarked) :: < 0.1 µM

Turning now to a further record.
Briefly, DC50 measured for Cn1c(=O)n(C2CCC(=O)NC2=O)c2cccc(N3CCC(CCN4CCN(c5ccc(-n6cc(NC(=O)c7cccc(-c8ccn[nH]8)n7)c(S(N)(=O)=O)n6)cc5)CC4)CC3)c21 (centres unmarked) : < 0.1 µM
